Recorded polymerase ribozyme fitness (log ratio) by entry
B1: TPR t1 (parent)
chain: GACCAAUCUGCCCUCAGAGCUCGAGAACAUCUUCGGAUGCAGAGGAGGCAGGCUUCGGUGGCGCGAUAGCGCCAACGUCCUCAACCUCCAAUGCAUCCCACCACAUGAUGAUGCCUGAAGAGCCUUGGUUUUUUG

Variants of: B1
Assay: polymerase ribozyme fitness, log enrichment relative to wild type (log ratio); higher = more active; in vitro selection for triplet polymerase activity
I'd appreciate a reply containing only the number, no unit.

Known polymerase ribozyme fitness (log ratio) results, listed for orientation:
In: State the recorded polymerase ribozyme fitness (log ratio) for this entry: C20U A26U U32C G69U
Out: -3.17

In: State the recorded polymerase ribozyme fitness (log ratio) for this entry: C20U G36U G135U
Out: -2.95

In: State the recorded polymerase ribozyme fitness (log ratio) for this entry: G36U A91U
Out: -2.67

In: State the recorded polymerase ribozyme fitness (log ratio) for this entry: U9G A18C C56G G120A U130A
Out: -1.19

In: State the recorded polymerase ribozyme fitness (log ratio) for this entry: G36U A121G
Out: 0.373

In: State the recorded polymerase ribozyme fitness (log ratio) for this entry: G19C A37U C124U
Out: -1.48

In: State the recorded polymerase ribozyme fitness (log ratio) for this entry: G93U U112A
Out: 0.151

In: State the recorded polymerase ribozyme fitness (log ratio) for this entry: C56U U96C C99U
Out: -3.29

In: State the recorded polymerase ribozyme fitness (log ratio) for this entry: C8G A27U A46C G69U U78A C114U
Out: -4.5

In: State the recorded polymerase ribozyme fitness (log ratio) for this entry: U14G G58A A95U G117C
Out: -5.13

---
In: State the recorded polymerase ribozyme fitness (log ratio) for this entry: C11U C53U C72U C82G
Out: -1.43

In: State the recorded polymerase ribozyme fitness (log ratio) for this entry: A29G C64U C104A U106A U112C
Out: -0.729

In: State the recorded polymerase ribozyme fitness (log ratio) for this entry: G42A C85G G93A
Out: -3.19

In: State the recorded polymerase ribozyme fitness (log ratio) for this entry: U7A U14A C86U A90U
Out: -3.61

In: State the recorded polymerase ribozyme fitness (log ratio) for this entry: A5U C49G G51A A74U C82A
Out: -4.76

In: State the recorded polymerase ribozyme fitness (log ratio) for this entry: C8U G57U
Out: -0.029

In: State the recorded polymerase ribozyme fitness (log ratio) for this entry: A2U A6G G17U G39U G52U C73G
Out: -5.54

In: State the recorded polymerase ribozyme fitness (log ratio) for this entry: C11U G57U
Out: -0.202

In: State the recorded polymerase ribozyme fitness (log ratio) for this entry: A50C U81C
Out: 0.175

In: State the recorded polymerase ribozyme fitness (log ratio) for this entry: A41U C82U G113C
Out: -2.61

In: State the recorded polymerase ribozyme fitness (log ratio) for this entry: G42A U54G A103G U109A G117C
Out: -6.58

In: State the recorded polymerase ribozyme fitness (log ratio) for this entry: U32C A83G U87A U106A
Out: -2.71

In: State the recorded polymerase ribozyme fitness (log ratio) for this entry: C22U C115U
Out: -4.01

Each recorded value in this set is attributed to the RNAGym collection of RNA variant scans (doi:10.1073/pnas.2313332121).
